The reader will find reported combination Emax values listed item by item below.
- System: LS-513 (Colorectal Carcinoma)
- assay remarks: combination Emax (second highest fraction inhibited in the dose matrix, 72 h); higher = more inhibition; extreme values may be limits of the assay
Provide a numeric answer; units are not to be included.

Example entries and their recorded answers appear below.
[
  {
    "compound": "CCc1c2c(nc3ccc(O)cc13)-c1cc3c(c(=O)n1C2)COC(=O)[C@]3(O)CC [SN-38] + CN(C)CCCOc1ccc(-c2ccc3ncc4c(c3c2)n(C2CCOCC2)c(=O)n4C)cn1 [AZD0156] (first compound max 0.3 µM, 7x7, partner max 1 µM)",
    "combination Emax": 0.526
  },
  {
    "compound": "C=CCn1c(=O)c2cnc(Nc3ccc(N4CCN(C)CC4)cc3)nc2n1-c1cccc(C(C)(C)O)n1 [AZD1775] + Nc1ccn([C@@H]2O[C@H](CO)[C@@H](O)C2(F)F)c(=O)n1 [Gemcitabine] (first compound max 1 µM, partner max 0.3 µM)",
    "combination Emax": 0.839
  },
  {
    "compound": "CC(=O)c1c(C)c2cnc(Nc3ccc(N4CCNCC4)cn3)nc2n(C2CCCC2)c1=O [Palbociclib] + Cn1cnc2c(F)c(Nc3ccc(Br)cc3Cl)c(C(=O)NOCCO)cc21 [Selumetinib] (first compound max 10 µM, 7x7, partner max 10 µM)",
    "combination Emax": 0.876
  }
]

Next:
Prompt: Item under review: C[C@@H](c1ccc2nccn2c1)n1nnc2ncc(-c3cnn(C)c3)nc21 [Savolitinib] + Cc1c2c(nn1C)CSCc1cc(n(C)n1)CSc1cc(c3ccccc3c1)OCCCc1c(C(=O)O)n(C)c3c-2c(Cl)ccc13 [AZD5991] (first compound max 1 µM, 7x7, partner max 1 µM) . Reported combination Emax?
Completion: 0.155

====

- Tested on: CTV-1 (T-Lymphoblastic Leukemia)
- assay remarks: combination Emax (second highest fraction inhibited in the dose matrix, 72 h); higher = more inhibition; extreme values may be limits of the assay
The reader will find reported combination Emax values listed item by item below.
Provide a numeric answer; units are not to be included.

Example entries and their recorded answers appear below.
[
  {
    "compound": "CCN(CCO)CCCOc1ccc2c(Nc3cc(CC(=O)Nc4cccc(F)c4)[nH]n3)ncnc2c1 [AZD2811] + O=C(c1cc(Cc2n[nH]c(=O)c3ccccc23)ccc1F)N1CCN(C(=O)C2CC2)CC1 [Olaparib] (first compound max 1 µM, 7x7, partner max 10 µM)",
    "combination Emax": 0.375
  },
  {
    "compound": "CC1(C)CCC(CN2CCN(c3ccc(C(=O)NS(=O)(=O)c4ccc(NCC5CCOCC5)c([N+](=O)[O-])c4)c(Oc4cnc5[nH]ccc5c4)c3)CC2)=C(c2ccc(Cl)cc2)C1 [Venetoclax] + C=CCn1c(=O)c2cnc(Nc3ccc(N4CCN(C)CC4)cc3)nc2n1-c1cccc(C(C)(C)O)n1 [AZD1775] (first compound max 1 µM, partner max 1 µM)",
    "combination Emax": 0.992
  },
  {
    "compound": "CN(CCO)CC[C@H](CSc1ccccc1)Nc1ccc(S(=O)(=O)NC(=O)c2ccc(N3CCC([C@@H](O)c4ccccc4-c4ccc(Cl)cc4)CC3)cc2)cc1S(=O)(=O)C(F)(F)F [AZD4320] + CCN(CCO)CCCOc1ccc2c(Nc3cc(CC(=O)Nc4cccc(F)c4)[nH]n3)ncnc2c1 [AZD2811] (first compound max 1 µM, 7x7, partner max 1 µM)",
    "combination Emax": 0.27
  }
]

Next:
Prompt: Item under review: COc1nnc2ccc(N3CCC(c4ccc(OCCN5CCN(C)C(=O)[C@H]5C)cc4)CC3)nn12 [AZD5153] + Cc1c2c(nn1C)CSCc1cc(n(C)n1)CSc1cc(c3ccccc3c1)OCCCc1c(C(=O)O)n(C)c3c-2c(Cl)ccc13 [AZD5991] (first compound max 1 µM, 7x7, partner max 1 µM) . Reported combination Emax?
Completion: 0.939

====

The reader will find reported combination Emax values listed item by item below.
- Test system: U-266 (Plasma Cell Myeloma)
- assay remarks: combination Emax (second highest fraction inhibited in the dose matrix, 72 h); higher = more inhibition; extreme values may be limits of the assay
Provide a numeric answer; units are not to be included.

[
  {
    "compound": "CCN(CCO)CCCOc1ccc2c(Nc3cc(CC(=O)Nc4cccc(F)c4)[nH]n3)ncnc2c1 [AZD2811] + C[C@@H]1COCCN1C2=NC(=NC(=C2)C3(CC3)[S@](=N)(=O)C)C4=C5C=CNC5=NC=C4 [AZD6738] (first compound max 1 µM, 7x7, partner max 10 µM)",
    "readout number": 0.426
  }
]

Next:
Prompt: Item under review: COc1cccc2c1C(=O)c1c(O)c3c(c(O)c1C2=O)C[C@@](O)(C(=O)CO)C[C@@H]3O[C@H]1C[C@H](N)[C@H](O)[C@H](C)O1 [Doxorubicin] + Cc1cc2ncnn2cc1Nc1ncc2c(n1)n(C1CCOCC1)c(=O)n2C [AZD7648] (first compound max 1 µM, 7x7, partner max 10 µM) . Reported combination Emax?
Completion: 0.612

====

- Test system: OCI-AML2 (Acute Myeloid Leukemia)
- assay remarks: combination Emax (second highest fraction inhibited in the dose matrix, 72 h); higher = more inhibition; extreme values may be limits of the assay
The reader will find reported combination Emax values listed item by item below.
Provide a numeric answer; units are not to be included.

Prompt: Form: Entry = Cc1cc2ncnn2cc1Nc1ncc2c(n1)n(C1CCOCC1)c(=O)n2C [AZD7648] + CN(C)CCCOc1ccc(-c2ccc3ncc4c(c3c2)n(C2CCOCC2)c(=O)n4C)cn1 [AZD0156] (first compound max 10 µM, 7x7, partner max 1 µM) | System = OCI-AML2 (Acute Myeloid Leukemia) | combination Emax = ____
Completion: 0.367

Prompt: Input CC1(C)CCC(CN2CCN(c3ccc(C(=O)NS(=O)(=O)c4ccc(NCC5CCOCC5)c([N+](=O)[O-])c4)c(Oc4cnc5[nH]ccc5c4)c3)CC2)=C(c2ccc(Cl)cc2)C1 [Venetoclax] + C[C@@H](Nc1cc(F)cc(F)c1)c1cc(C(=O)N(C)C)cc2c(=O)cc(N3CCOCC3)oc12 [AZD8186] (first compound max 1 µM, 7x7, partner max 3 µM)
Completion: 1

====

- System: 697 (B-Lymphoblastic Leukemia);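 note: after 72 h of two-drug dosing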
- assay remarks: Bliss excess, mean over the matrix (fraction); higher = more synergy
Param threshold (-0.01) applies to Bliss excess; output 1 when value >= threshold, -1 when value < threshold.

[
  {
    "molecule": "CS(=O)(=O)CCNCc1ccc(-c2ccc3ncnc(Nc4ccc(OCc5cccc(F)c5)c(Cl)c4)c3c2)o1 [Lapatinib] + C[C@@H](Oc1cc(-c2cnn(C3CCNCC3)c2)cnc1N)c1c(Cl)ccc(F)c1Cl [Crizotinib] (first compound max 10 µM, 7x7, partner max 10 µM)",
    "system under test": "697 (B-Lymphoblastic Leukemia)",
    "class name": 1
  },
  {
    "molecule": "CCN(CCO)CCCOc1ccc2c(Nc3cc(CC(=O)Nc4cccc(F)c4)[nH]n3)ncnc2c1 [AZD2811] + C[C@@H]1COCCN1C2=NC(=NC(=C2)C3(CC3)[S@](=N)(=O)C)C4=C5C=CNC5=NC=C4 [AZD6738] (first compound max 1 µM, 7x7, partner max 10 µM)",
    "system under test": "697 (B-Lymphoblastic Leukemia)",
    "class name": 1
  },
  {
    "molecule": "COc1nnc2ccc(N3CCC(c4ccc(OCCN5CCN(C)C(=O)[C@H]5C)cc4)CC3)nn12 [AZD5153] + CC1(C)CCC(CN2CCN(c3ccc(C(=O)NS(=O)(=O)c4ccc(NCC5CCOCC5)c([N+](=O)[O-])c4)c(Oc4cnc5[nH]ccc5c4)c3)CC2)=C(c2ccc(Cl)cc2)C1 [Venetoclax] (first compound max 1 µM, 7x7, partner max 1 µM)",
    "system under test": "697 (B-Lymphoblastic Leukemia)",
    "class name": -1
  },
  {
    "molecule": "Cc1c2c(nn1C)CSCc1cc(n(C)n1)CSc1cc(c3ccccc3c1)OCCCc1c(C(=O)O)n(C)c3c-2c(Cl)ccc13 [AZD5991] + CC1(C)CCC(CN2CCN(c3ccc(C(=O)NS(=O)(=O)c4ccc(NCC5CCOCC5)c([N+](=O)[O-])c4)c(Oc4cnc5[nH]ccc5c4)c3)CC2)=C(c2ccc(Cl)cc2)C1 [Venetoclax] (first compound max 1 µM, 7x7, partner max 1 µM)",
    "system under test": "697 (B-Lymphoblastic Leukemia)",
    "class name": -1
  },
  {
    "molecule": "CN(C)CCCOc1ccc(-c2ccc3ncc4c(c3c2)n(C2CCOCC2)c(=O)n4C)cn1 [AZD0156] + C=CCn1c(=O)c2cnc(Nc3ccc(N4CCN(C)CC4)cc3)nc2n1-c1cccc(C(C)(C)O)n1 [AZD1775] (first compound max 1 µM, partner max 1 µM)",
    "system under test": "697 (B-Lymphoblastic Leukemia)",
    "class name": 1
  }
]

Prompt: Check if Bliss excess >= -0.01 (inclusive). Item: CN(C)CCCOc1ccc(-c2ccc3ncc4c(c3c2)n(C2CCOCC2)c(=O)n4C)cn1 [AZD0156] + CCN(CCO)CCCOc1ccc2c(Nc3cc(CC(=O)Nc4cccc(F)c4)[nH]n3)ncnc2c1 [AZD2811] (first compound max 1 µM, 7x7, partner max 1 µM)
Completion: -1

Prompt: Input Cc1cc2ncnn2cc1Nc1ncc2c(n1)n(C1CCOCC1)c(=O)n2C [AZD7648] + CCN(CCO)CCCOc1ccc2c(Nc3cc(CC(=O)Nc4cccc(F)c4)[nH]n3)ncnc2c1 [AZD2811] (first compound max 10 µM, 7x7, partner max 1 µM)
Completion: 1
